This collection of values is drawn from ChEMBL document CHEMBL1146651.

Recorded pKi by entry
target.of.assay: Tissue-type plasminogen activator (Homo sapiens, UniProt P00750)
Sequence (P00750 whole entry): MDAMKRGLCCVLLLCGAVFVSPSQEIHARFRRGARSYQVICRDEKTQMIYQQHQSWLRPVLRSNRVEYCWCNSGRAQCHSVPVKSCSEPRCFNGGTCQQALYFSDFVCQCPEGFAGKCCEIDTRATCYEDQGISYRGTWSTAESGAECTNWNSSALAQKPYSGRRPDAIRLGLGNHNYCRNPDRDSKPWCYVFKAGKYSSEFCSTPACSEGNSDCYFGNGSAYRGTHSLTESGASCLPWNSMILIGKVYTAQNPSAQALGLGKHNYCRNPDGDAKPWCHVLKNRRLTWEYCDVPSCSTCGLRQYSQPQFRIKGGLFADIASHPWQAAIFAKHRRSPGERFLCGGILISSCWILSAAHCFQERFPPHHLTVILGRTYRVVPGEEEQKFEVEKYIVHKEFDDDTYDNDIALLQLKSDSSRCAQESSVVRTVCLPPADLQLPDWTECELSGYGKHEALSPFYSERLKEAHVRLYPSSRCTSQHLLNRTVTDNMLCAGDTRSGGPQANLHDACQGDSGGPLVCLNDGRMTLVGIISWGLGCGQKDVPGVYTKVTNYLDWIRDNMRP
pKi: −log10 of the molar value.
property.label: pKi

>>> recorded_number("NC(N)=Nc1ncc(Cl)c2ccccc12")
3.89
>>> recorded_number("NC(N)=Nc1nccc2c(-c3ccccc3)cccc12")
3.91
>>> recorded_number("COc1ccccc1-c1ccc2c(Cl)cnc(N=C(N)N)c2c1")
4.81
>>> recorded_number("Cc1ccc(-c2ccc3c(Cl)cnc(N=C(N)N)c3c2)cc1")
4.72
>>> recorded_number("N=C(N)Nc1nccc2ccc(OCc3ccccc3)cc12")
4.89
>>> recorded_number("NC(N)=Nc1nccc2ccc(-c3ccccc3)cc12")
3.91
